# PROTOCOL_DETAILS: chemical genetic growth profiling, strain panel (AID 1159580);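 also: tested at 20 µM; growth read once vehicle control cultures reached saturation at 30 °C; 1 = growth at the plate median or of vehicle wells; lower values mean less growth of the strain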
# CONDITION_NOTES: S. cerevisiae deletion strains, growth OD, locus YNL209W, strain ssb2, stronger effect = lower value
About 2,000 (36%) of roughly 5,500 compounds were called active. Another 18% or so got no clear call; they are omitted. The list shows a part of the results.
Each record here notes measured normalized growth.
Number, no unit, nothing else.

Example entries and their recorded answers appear below.
{"COMPOUND": "COc1cc(O)c2c(=O)cc(-c3ccc(OC)c(-c4c(O)cc(O)c5c(=O)cc(-c6ccc(O)cc6)oc45)c3)oc2c1", "normalized growth": 0.994}
{"COMPOUND": "COc1ccc(-c2cc(=O)c3c(O)cc(O)c(-c4cc(-c5cc(=O)c6c(O)cc(O)cc6o5)ccc4OC)c3o2)cc1", "normalized growth": 1.01}
{"COMPOUND": "CCCCC(=O)O[C@]1(C(=O)CO)[C@@H](C)CC2C3CCC4=CC(=O)C=C[C@]4(C)[C@@]3(F)C(O)C[C@@]21C (some centres undefined)", "normalized growth": 0.975}

Pending compound:
Task item: Quote normalized growth reported for CCC(=O)OCC(=O)C1(OC(=O)CC)C(C)CC2C3C(Cl)CC4=CC(=O)C=CC4(C)C3C(O)CC21C (centres undefined) please.
Reply: 1.01
